Parameter: SIGNAL. Scope: all listed entries.
Target: alkaline phosphatase (Bos taurus)
Sequence (P19111 20-506 limits assumed): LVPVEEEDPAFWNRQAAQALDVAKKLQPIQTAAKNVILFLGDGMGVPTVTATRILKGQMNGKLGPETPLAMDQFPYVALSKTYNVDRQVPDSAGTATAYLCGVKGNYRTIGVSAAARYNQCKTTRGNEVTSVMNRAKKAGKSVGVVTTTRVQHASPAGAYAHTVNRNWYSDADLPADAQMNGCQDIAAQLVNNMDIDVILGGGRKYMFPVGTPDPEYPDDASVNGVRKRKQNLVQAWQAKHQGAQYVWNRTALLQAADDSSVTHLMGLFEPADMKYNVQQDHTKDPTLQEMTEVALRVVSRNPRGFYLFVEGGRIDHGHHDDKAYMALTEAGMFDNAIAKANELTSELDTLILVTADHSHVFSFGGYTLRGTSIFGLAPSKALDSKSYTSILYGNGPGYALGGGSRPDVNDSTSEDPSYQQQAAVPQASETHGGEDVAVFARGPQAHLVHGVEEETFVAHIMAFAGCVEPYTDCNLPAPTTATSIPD
Assay: Chemiluminescent signal and signal:background with enhancer polymers (Example XVII)
Format: biochemical
Settings: polymer S/TMQ(1:4); 20 min
Give only the figure.

See these solved cases before continuing.
>  <Molecule>
COC1(c2cccc(OP(=O)(O)O)c2)OOC12C1CC3CC2CC(Cl)(C3)C1 (stereo not shown)

>  <Observed property>
SIGNAL

>  <Numeric result>
9957.4

$$$$
>  <Molecule>
COC1(c2cccc(OP(=O)(O)O)c2)OOC12C1CC3CC(C1)CC2C3 (stereo not shown) [AMPPD, reference compound]

>  <Observed property>
SIGNAL

>  <Numeric result>
15866.3

$$$$
>  <Molecule>
COC1(c2cccc(OP(=O)(O)O)c2)OOC12C1CC3CC2CC(O)(C3)C1 (single isomer, unassigned) [A-OH-AMPPD]

>  <Observed property>
SIGNAL

>  <Numeric result>
1201.7

$$$$

**Q:** What does the data say about its SIGNAL? Entry: COC1(c2cccc(OP(=O)(O)O)c2)OOC12C1CC3CC2CC(O)(C3)C1 (single isomer, unassigned) [B-OH-AMPPD]
**A:** 7120.3
